System: HCV NS5B polymerase 1a-H77-C316Y
Experiment: biochemical
Parameters: species or system HCV genotype 1a
Details: ratio of enzyme IC50s, 1a H77-C316Y / 1a H77
Protocol: Purified HCV NS5B polymerase enzymes were used for polymerase inhibition assays. […] The reaction was initiated by the addition of 20 μM CTP, 20 μM ATP, 0.284 μM (0.5 μCi) of 5,6-[^3H] […] After drying thoroughly in air, 30 μL of Microscint-20 scintillation cocktail (Perkin Elmer) was added to each well, and the retained cpm were determined by scintillation counting. IC50 values were determined by nonlinear regression. […]
I'd appreciate it if you marked entries YES when C316Y/1a Fold Resistance is lower than 10 fold and NO when it is not.

Could you please tell me whether C316Y/1a Fold Resistance recorded for CS(=O)(=O)N(CCCc1noc(=S)[nH]1)c1cc2oc(-c3ccc(F)cc3)c(C3=NOCCN3)c2cc1C1CC1 is less than 10 fold? YES

Could you please tell me whether C316Y/1a Fold Resistance recorded for CS(=O)(=O)N(CCCS(N)(=O)=O)c1cc2oc(-c3ccc(F)cc3)c(-c3ncc[nH]3)c2cc1C1CC1 is less than 10 fold? NO

Could you please tell me whether C316Y/1a Fold Resistance recorded for CS(=O)(=O)N(CCc1csc(N)n1)c1cc2oc(-c3ccc(F)cc3)c(-c3ncc[nH]3)c2cc1C1CC1 is less than 10 fold? NO

Could you please tell me whether C316Y/1a Fold Resistance recorded for CS(=O)(=O)N(CCC1CCCCC1)c1cc2oc(-c3ccc(F)cc3)c(-c3ncc[nH]3)c2cc1C1CC1 is less than 10 fold? NO

Could you please tell me whether C316Y/1a Fold Resistance recorded for CS(=O)(=O)N(Cc1cnc(-c2cccc(CO)c2)s1)c1ccc2c(-c3ncc[nH]3)c(-c3ccccc3)oc2c1 is less than 10 fold? YES

Could you please tell me whether C316Y/1a Fold Resistance recorded for CS(=O)(=O)N(CCCC(=O)N1CCCCC1)c1cc2oc(-c3ccc(F)cc3)c(-c3ncc[nH]3)c2cc1C1CC1 is less than 10 fold? NO

Could you please tell me whether C316Y/1a Fold Resistance recorded for Cn1ccc2cc(-c3ncc(CN(c4ccc5c(-c6ncc[nH]6)c(-c6ccccc6)oc5c4)S(C)(=O)=O)s3)ccc21 is less than 10 fold? YES

Could you please tell me whether C316Y/1a Fold Resistance recorded for CN(C)CCCN(c1cc2oc(-c3ccc(F)cc3)c(-c3ncc[nH]3)c2cc1C1CC1)S(C)(=O)=O is less than 10 fold? NO

Could you please tell me whether C316Y/1a Fold Resistance recorded for CS(=O)(=O)N(Cc1cnc(-c2c[nH]c(=O)[nH]c2=O)s1)c1ccc2c(-c3ncc[nH]3)c(-c3ccccc3)oc2c1 is less than 10 fold? YES

Could you please tell me whether C316Y/1a Fold Resistance recorded for CC(=O)CCCN(c1cc2oc(-c3ccc(F)cc3)c(-c3ncc[nH]3)c2cc1C1CC1)S(C)(=O)=O is less than 10 fold? NO

Could you please tell me whether C316Y/1a Fold Resistance recorded for CS(=O)(=O)N(CCCC(F)(F)F)c1cc2oc(-c3ccc(F)cc3)c(-c3ncc[nH]3)c2cc1C1CC1 is less than 10 fold? NO

The values you see were collected from patent US20160355530A1.
